The measurements presented in this section are drawn from patent US7329737.

Please go through the items and note down their koff.
- assayed_target: T1, hK1 (human tissue kallikrein 1), recombinant (human, UniProt P06870 25-262)
- T1 construct: Expressed in P. pastoris from KLK1 cDNA and purified; enzymatically active; also called KLK1; Recombinant (Pichia) Kallikrein
- procedure_details: SPR
Entry format: amount then unit.

Req: What does the record list as koff for M0138-C09 (Fab, V domains shown) VH: EVQLLESGGGLVQPGGSLRLSCAASGFTFSPYRMSWVRQAPGKGLEWVSVISPSGGITEYADSVKGRFTISRDNSKNTLYLQMNSLRAEDTAVYYCAKHERGSGYYVTPPAGAFDIWGQGTMVTVSS VL: AQSELTQPASVAGSPGQSITISCTGTSSDVGLYNFVSWYQQHPGKAPKLMIYDVSRRPSGVSNRFSASKSGTRASLTVSGLQAEDEADYYCSSYAGSNNYVFGTGTKVTVLG ?
Resp: 0.00153 s⁻¹

Req: What does the record list as koff for M0114-G06 (Fab, V domains shown) VH: EVQLLESGGGLVQPGGSLRLSCAASGFTFSYYEMEWVRQAPGKGLEWVSSIRPSGGRTVYADSVKGRFTISRDNSKNTLYLQMNSLRAEDTAVYYCAKGRSNYYGSGSYSPKYFQHWGQGTLVTVSS VL: DIQMTQSPSSLSASVGDRVTITCRASQGISSWLAWYQQRPERAPKSLIYAASSLERGVPSRFRGSGSGTDFTLTISSLQPEDFGTYYCQQYHNFPLTFGGGTRVEINR ?
Resp: 0.000166 s⁻¹

Req: What does the record list as koff for M0114-G09 (Fab, V domains shown) VH: EVQLLESGGGLVQPGGSLRLSCAASGFTFSHYAMDWVRQAPGKGLEWVSVIYSSGGKTTYADSVKGRFTISRDNSKNTLYLQMNSLRAEDTAMYYCARVGVWYGMDVWGQGTTVTVSS VL: AQSALTQPASVSGSPGQSITISCTGTSSDVGSYKLVSWYQQHPGKAPKLMIYEGSKRPSGVSNRFSGSKSGNTASLTISGLQAEDEADYYCCSYAGSSTWVFGGGTKLTVLG ?
Resp: 0.00062 s⁻¹

Req: What does the record list as koff for M0131-G03 (Fab, V domains shown) VH: EVQLLESGGGLVQPGGSLRLSCAASGFTFSHYVMQWVRQAPGKGLEWVSSIYPSGGSTRYADSVKGRFTISRDNSKNTLYLQMNSLRAEDTAMYYCARFNVGFDLWGRGTLVTVSS VL: AQSELTQPPSASGSPGQSLTISCTGGRRDIGNYNYVSWYQQHPGKAPRLIIYDVRKRPSGVPDRFSGSKSGNVAFLTVSGLQTDDEADYYCGSYTGTSNVFGSGTTVTVLG ?
Resp: 0.00256 s⁻¹
